system: UACC-62 melanoma; assay: NCI tumour cell line growth inhibition, 48 h
Label met when TGI is at or above 30 µM; otherwise label not met.

Example cases with answers are listed next.
{"compound": "CC(CC(=O)Nc1ccc(NC(=O)CC(C)N=NC(N)=S)cc1)N=NC(N)=S (stereo not given)", "tgt": "UACC-62 melanoma", "assigned-class": "met"}
{"compound": "Cc1c2c(n(CCc3ccc(Cl)cc3)c1C)NN=C(C#N)S2(=O)=O", "tgt": "UACC-62 melanoma", "assigned-class": "met"}
{"compound": "OC(c1ccc(Br)cc1)(c1cccs1)C1CC1 (stereo not given)", "tgt": "UACC-62 melanoma", "assigned-class": "met"}
{"compound": "CC(C)(C)NC(=O)/C(=C\\Sc1ccccc1)c1ccc2c(c1)OCO2", "tgt": "UACC-62 melanoma", "assigned-class": "met"}
{"compound": "Nc1c(-c2cccc3ccccc23)c2ccc([N+](=O)[O-])cc2c(=O)n1-c1nc2ccccc2s1", "tgt": "UACC-62 melanoma", "assigned-class": "met"}
{"compound": "O=C(NCCN1CCOCC1)c1ccc2cc(C(=O)N3CC(CCl)c4ccc([N+](=O)[O-])cc43)[nH]c2c1 (stereo not given)", "tgt": "UACC-62 melanoma", "assigned-class": "met"}
{"compound": "CN(C)Cc1cc(C(=O)/C=C/c2ccc(O)cc2)cc(CN(C)C)c1O", "tgt": "UACC-62 melanoma", "assigned-class": "met"}
{"compound": "Cn1cc(-c2csc(-c3cn(C)c4ccccc34)n2)c2cnccc21", "tgt": "UACC-62 melanoma", "assigned-class": "not met"}
{"compound": "CCCCCCCCCCCCCCCCCCNC(=O)[C@H]1CSC(c2cccs2)N1 (stereo not given in full)", "tgt": "UACC-62 melanoma", "assigned-class": "not met"}
{"compound": "CCN(CC)CC(=O)N1CCc2c([nH]c3ccccc23)C1c1cccnc1 (stereo not given)", "tgt": "UACC-62 melanoma", "assigned-class": "met"}

Query string: Has `Cc1ccc2c(c1)Sc1ccc(N=NN(C)C)cc1N2C` a recorded TGI greater than or equal to 30 µM?
Result string: met

Query string: Has O=C(O)CCC(NC(=S)S)C(=O)O.[Na+].[Zn+2] (stereo not given) a recorded TGI greater than or equal to 30 µM?
Result string: met

Query string: Has CCOC1Oc2ccccc2-c2oc(=O)c(Sc3ccc(C)cc3)cc21 (stereo not given) a recorded TGI greater than or equal to 30 µM?
Result string: met

Query string: Has `O=S1(=O)NCCCN1CCNc1nccc(-c2c(-c3cccc(O)c3)nc3sccn23)n1` a recorded TGI greater than or equal to 30 µM?
Result string: not met

Query string: Has `COC(=O)c1c2c(cc3c1CC1(C3)Cc3cc4c(c(C(=O)OC)c3C1)CCCC4)CCCC2` a recorded TGI greater than or equal to 30 µM?
Result string: met

Query string: Has `CCCn1c(CN(Cc2nc3ccccc3n2CCC)Cc2nc3ccccc3n2CCC)nc2ccccc21` a recorded TGI greater than or equal to 30 µM?
Result string: not met

Query string: Has CC(C(=O)n1nnc2ccccc21)N(c1ccccc1)c1ccccc1 (stereo not given) a recorded TGI greater than or equal to 30 µM?
Result string: met

Query string: Has `CC(C)/C(Cl)=N\OC(=O)Nc1ccc(C#N)cc1` a recorded TGI greater than or equal to 30 µM?
Result string: met

Query string: Has `Cc1cc(Nc2nc(SCc3ccc(C(=O)Nc4ccc(F)cc4N)cc3)nn3cccc23)n[nH]1` a recorded TGI greater than or equal to 30 µM?
Result string: not met

Query string: Has `CC(C)c1ccccc1NC(=O)/C(Cl)=C1/Sc2ccccc2NC1=O` a recorded TGI greater than or equal to 30 µM?
Result string: met

Query string: Has COc1cc(C2SCC(=O)N2c2ccc(NC(=O)c3ccc(N4C(=O)CSC4c4cc(OC)c(OC)c(OC)c4)cc3)cc2)cc(OC)c1OC (stereo not given) a recorded TGI greater than or equal to 30 µM?
Result string: met

Query string: Has `c1ccc2sc(SCSc3nc4ccccc4s3)nc2c1` a recorded TGI greater than or equal to 30 µM?
Result string: met
